Listed binders paired with reported IC50, DLL4-mediated reporter assay
molecular target: human DLL4 expressed on cells (CHO-hDLL4; HEK293-hDLL4) (human, UniProt Q9NR61 27-685); assay: cell-based or functional assay
endpointLabel: IC50, DLL4-mediated reporter assay (nM)

binder	endpointLabel	readoutNumber
DLLBII134D10 (VHH, not shown: small tags and cut ends) VHH: EVQLVESGGGLVQPGGSLRLSCAASGFTIGSYDMSWVRRSPGKGPEWVSSINSGGGSTYYTDYVKGRFTISRDNAKNTLYLQMNSLKPEDTAVYYCAADRYIWARQGEYWGAYAYDYWGQGTQVTVSS	IC50, DLL4-mediated reporter assay	18
DLLBII115A05 (VHH, not shown: small tags and cut ends, parent VHH; also called 115A05 (wt); 115A5) VHH: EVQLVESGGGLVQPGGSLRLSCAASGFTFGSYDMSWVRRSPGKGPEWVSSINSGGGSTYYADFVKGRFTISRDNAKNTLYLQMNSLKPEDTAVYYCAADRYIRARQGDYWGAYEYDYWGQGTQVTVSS	IC50, DLL4-mediated reporter assay	1340
DLLBII101G08 (VHH, not shown: small tags and cut ends, parent VHH; also called 101G08 (wt); 101G8) VHH: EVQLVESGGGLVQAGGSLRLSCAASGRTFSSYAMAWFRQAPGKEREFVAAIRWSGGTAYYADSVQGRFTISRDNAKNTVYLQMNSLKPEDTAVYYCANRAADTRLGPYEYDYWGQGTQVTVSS	IC50, DLL4-mediated reporter assay	1940
DLLBII129D08 (VHH, not shown: small tags and cut ends) VHH: EVQLVESGGGLVQAGGSLRLSCAASGRTFSSYAMAWYRQAPGKEREYVAAIRWSGGTAYYADSVQGRFTISRDNAKNTVYLQMNSLKPEDTAVYYCANRAPDTRLEPYLYDYWGQGTQVTVSS	IC50, DLL4-mediated reporter assay	77
DLLBII015 (VHH, not shown: small tags and cut ends) VHH: EVQLVESGGGLVQPGGSLRLSCAASGFTIGSYDMSWVRRSPGKGPEWVSAINSGGGSTYYADYVKGRFTISRDNAKNTLYLQMNSLKPEDTAVYYCAADRYIWARQGEYWGAYAYDYWGQGTQVTVSS	IC50, DLL4-mediated reporter assay	18
DLLBII129E11 (VHH, not shown: small tags and cut ends) VHH: EVQLVESGGGLVQAGGSLRLSCAASGRTFSSYAMAWYRQAPGKEREYVAAIRWSGGTAYYADSVQGRFTISRDNAKNTVYLQMNSLKPEDTAVYYCANRAPDTRLRPYLYDYWGQGTQVTVSS	IC50, DLL4-mediated reporter assay	98
DLLBII133A09 (VHH, not shown: small tags and cut ends) VHH: EVQLVESGGGLVQPGGSLRLSCAASGFTFGSYDMSWVRRSPGKGPEWVSAINSGGGSTYYADYVKGRFTISRDNAKNTLYLQMNSLKPEDTAVYYCAADRYIWARQGEYWGAYAYDYWGQGTQVTVSS	IC50, DLL4-mediated reporter assay	87
DLLBII133G05 (VHH, not shown: small tags and cut ends) VHH: EVQLVESGGGLVQPGGSLRLSCAASGFTFGSYDMSWVRRSPGKGPEWVSAINSGGGSTYYTDYVKGRFTISRDNAKNTLYLQMNSLKPEDTAVYYCAADRYIWARQGEYWGAYAYDYWGQGTQVTVSS	IC50, DLL4-mediated reporter assay	104
DLLBII136C07 (VHH, not shown: small tags and cut ends) VHH: EVQLVESGGGLVQPGGSLRLSCAASGFTFGSYDMSWVRRSPGKGPEWVSSINSGGGSTYYADYVKGRFTISRDNAKNTLYLQMNSLKPEDTAVYYCAADRYIWARQGEYWGAYEYDYWGQGTQVTVSS	IC50, DLL4-mediated reporter assay	226
DLLBII129B05 (VHH, not shown: small tags and cut ends) VHH: EVQLVESGGGLVQAGGSLRLSCAASGRTFSSYAMAWYRQAPGKEREYVAAIRWSGGTAYYADSVQGRFTISRDNAKNTVYLQMNSLKPEDTAVYYCANRAPDTRLAPYEYDHWGQGTQVTVSS	IC50, DLL4-mediated reporter assay	60
